Measured IC50 (Human immunodeficiency virus type 1 protease (Human immunodeficiency virus 1))

| molecule | IC50 |
| --- | --- |
| C=CC[C@H](C[C@H](O)[C@H](Cc1ccccc1)NC(=O)OC(C)(C)C)C(=O)NC1c2ccccc2C[C@@H]1O (stereo not given in full) | 27.5 nM |
| CC(C)(C)OC(=O)N[C@@H](Cc1ccccc1)[C@@H](O)C[C@@H](CCCc1ccccc1)C(=O)NC1c2ccccc2C(O)[C@@H]1O (stereo not given in full) | 0.191 nM |
| CC(C)(C)OC(=O)N[C@@H](Cc1ccccc1)[C@@H](O)/C=C(/Cc1ccccc1)C(=O)NC1c2ccccc2C[C@@H]1O (stereo not given in full) | 1.29 nM |
| COC(=O)C1Cc2ccccc2C1NC(=O)[C@H](Cc1ccccc1)C[C@H](O)[C@H](Cc1ccccc1)NC(=O)OC(C)(C)C (stereo not given in full) | 66.1 nM |
| CC(C)(C)OC(=O)NC(Cc1ccccc1)[C@@H](O)CC(CSc1ccccc1)C(=O)NC1c2ccccc2C[C@@H]1O (stereo not given in full) | 0.251 nM |

###

Recorded pIC50 values for a group of molecules are listed next.
target: Human immunodeficiency virus type 1 protease (Human immunodeficiency virus 1, UniProt Q72874)
pIC50: −log10 of the molar value.
result type: pIC50

| molecule | reported |
| --- | --- |
| CC(C)(C)OC(=O)N[C@@H](Cc1ccccc1)[C@@H](O)CCC(=O)NC1c2ccccc2C[C@@H]1O (some centres not stated) | 5.53 |
| CC(C)(C)OC(=O)N[C@@H](Cc1ccccc1)[C@@H](O)C[C@@H](Cc1ccccc1)C(=O)NC1c2ccccc2OC[C@@H]1O (stereo in doubt; 26) | 9.75 |
| CC(C)(C)OC(=O)N[C@@H](Cc1ccc(O)cc1)[C@@H](O)C1CCCC1C(=O)NCc1ccccc1 (some centres not stated) | 6.23 |
| CC(C)(C)OC(=O)N[C@@H](Cc1ccccc1)[C@@H](O)C[C@@H](Cc1ccccc1)C(=O)NC1c2ccccc2OC[C@@H]1O (stereo in doubt; 27) | 7.39 |
| CC(C)(C)OC(=O)N[C@@H](Cc1ccccc1)[C@@H](O)CC(=O)NC1c2ccccc2C[C@@H]1O (some centres not stated) | 6.25 |
| CC(C)(C)OC(=O)N[C@@H](Cc1ccccc1)[C@@H](O)C[C@@H](Cc1ccc(O)cc1)C(=O)NC1c2ccccc2C[C@@H]1O (some centres not stated) | 9.80 |
| Cc1ccc(C[C@H](C[C@H](O)[C@H](Cc2ccccc2)NC(=O)OC(C)(C)C)C(=O)NC2c3ccccc3C[C@@H]2O)cc1 (some centres not stated) | 9.54 |

###

Recorded IC50 values for a group of compounds are listed next.
biological target: Human immunodeficiency virus type 1 protease (Human immunodeficiency virus 1)

| compound | IC50 / nM |
| --- | --- |
| CC(C)(C)OC(=O)NC(Cc1ccccc1)[C@@H](O)CC(Cc1ccc([N+](=O)[O-])cc1)C(=O)NC1c2ccccc2C[C@@H]1O (some centres undefined) | 0.269 |
| O=C(NC1c2ccccc2C[C@@H]1O)[C@H](Cc1ccccc1)CC(O)C[C@@H](Cc1ccccc1)C(=O)NC1c2ccccc2C[C@@H]1O (some centres undefined) | 0.692 |
| CC(C)(C)OC(=O)N[C@@H](Cc1ccccc1)[C@@H](O)C[C@@H](Cc1ccccc1)C(=O)NC1c2ccccc2C(O)[C@@H]1O (some centres undefined) | 0.1 |
| O=C(N[C@@H](Cc1ccccc1)[C@@H](O)C[C@@H](Cc1ccccc1)C(=O)NC1c2ccccc2C[C@@H]1O)OC1CCOC1 (some centres undefined) | 0.0603 |
| CC(C)(C)OC(=O)N[C@@H](Cc1ccccc1)[C@@H](O)C[C@@H](C/C=C/c1ccccc1)C(=O)NC1c2ccccc2C[C@@H]1O (some centres undefined) | 0.229 |
| CC(C)(C)OC(=O)N[C@@H](Cc1ccccc1)[C@@H](O)C[C@@H](Cc1ccccc1)C(=O)NC1CCc2ccccc21 (some centres undefined) | 33.9 |
| CC(C)(C)OC(=O)N[C@@H](Cc1ccccc1)[C@@H](O)C[C@H](C(=O)NC1c2ccccc2C[C@@H]1O)C(=O)c1ccccc1 (some centres undefined) | 5.37 |
| CC(C)(C)OC(=O)N[C@@H](Cc1ccccc1)[C@@H](O)CC1(Cc2ccccc2)CCCN(C2c3ccccc3C[C@@H]2O)C1=O (some centres undefined) | 1260 |
| CC(C)(C)OC(=O)N[C@@H](Cc1ccccc1)[C@@H](O)C[C@@H](Cc1ccc(C(F)(F)F)cc1)C(=O)NC1c2ccccc2C[C@@H]1O (some centres undefined) | 0.257 |
| CC(C)(C)OC(=O)N[C@@H](Cc1ccccc1)[C@@H](O)C[C@@H](Cc1c(F)c(F)c(F)c(F)c1F)C(=O)NC1c2ccccc2C[C@@H]1O (some centres undefined) | 0.603 |
| CC(C)(C)OC(=O)N[C@@H](Cc1ccccc1)[C@@H](O)C[C@@H](Cc1ccccc1)C(=O)NC1c2ccccc2C[C@@H]1O (some centres undefined) | 0.251 |
| CC(C)(C)OC(=O)N[C@@H](Cc1ccccc1)[C@@H](O)C[C@@H](Cc1ccncc1)C(=O)NC1c2ccccc2C[C@@H]1O (some centres undefined) | 0.525 |
| CC(C)(C)OC(=O)N[C@@H](Cc1ccccc1)[C@@H](O)C[C@@H](Cc1ccccc1)C(=O)NC1C=CC[C@@H]1O (some centres undefined) | 9.55 |
| CC(C)(C)OC(=O)NC(Cc1ccccc1)[C@@H](O)CC(Cc1ccc(N)cc1)C(=O)NC1c2ccccc2C[C@@H]1O (some centres undefined) | 0.309 |
